Experiment: molar heat capacity at constant pressure
Details: 209.15 K; 101.33 kPa; Crystal; Small sample (50 mg) DSC
parameter: molar heat capacity at constant pressure (J/K/mol)

- compound: "OC[C@H](O)C(O)[C@@H](O)CO [L-(-)-arabitol]"
  unit-name: "J/K/mol"
  observed-result: 145.72
- compound: "OC[C@@H](O)[C@H](O)[C@@H](O)CO"
  unit-name: "J/K/mol"
  observed-result: 147.11
- compound: "OC[C@@H](O)[C@@H](O)CO"
  unit-name: "J/K/mol"
  observed-result: 117.85
- compound: "OC[C@@H](O)C(O)[C@H](O)CO"
  unit-name: "J/K/mol"
  observed-result: 141.24
- compound: "OC[C@@H](O)[C@@H](O)[C@H](O)[C@H](O)CO"
  unit-name: "J/K/mol"
  observed-result: 163.78
- compound: "O[C@H]1[C@H](O)[C@@H](O)[C@H](O)[C@@H](O)[C@H]1O [cis-1,2,3,5-trans-4,6-cyclohexanehexol]"
  unit-name: "J/K/mol"
  observed-result: 150.17

* * *

Assay: molar heat capacity at constant pressure
Settings: 263.15 K; 101.33 kPa; Crystal; Small sample (50 mg) DSC

- compound: "OC[C@@H](O)[C@@H](O)CO"
  unit-name: "J/K/mol"
  molar heat capacity at constant pressure: 145.66
- compound: "OC[C@@H](O)[C@@H](O)[C@H](O)[C@H](O)CO"
  unit-name: "J/K/mol"
  molar heat capacity at constant pressure: 204.4
- compound: "O[C@H]1[C@H](O)[C@@H](O)[C@H](O)[C@@H](O)[C@H]1O [cis-1,2,3,5-trans-4,6-cyclohexanehexol]"
  unit-name: "J/K/mol"
  molar heat capacity at constant pressure: 191.02
- compound: "OC[C@@H](O)[C@H](O)[C@@H](O)CO"
  unit-name: "J/K/mol"
  molar heat capacity at constant pressure: 184.15
- compound: "OC[C@@H](O)C(O)[C@H](O)CO"
  unit-name: "J/K/mol"
  molar heat capacity at constant pressure: 176.2
- compound: "OC[C@H](O)C(O)[C@@H](O)CO [L-(-)-arabitol]"
  unit-name: "J/K/mol"
  molar heat capacity at constant pressure: 182.59

* * *

Assay: molar heat capacity at constant pressure
Settings: 329.15 K; 101.33 kPa; Crystal; Small sample (50 mg) DSC

- compound: "OC[C@@H](O)[C@@H](O)[C@H](O)[C@H](O)CO"
  molar heat capacity at constant pressure (J/K/mol): 258.51
- compound: "OC[C@@H](O)[C@@H](O)CO"
  molar heat capacity at constant pressure (J/K/mol): 183.85
- compound: "OC[C@@H](O)[C@H](O)[C@@H](O)CO"
  molar heat capacity at constant pressure (J/K/mol): 235.68
- compound: "O[C@H]1[C@H](O)[C@@H](O)[C@H](O)[C@@H](O)[C@H]1O [cis-1,2,3,5-trans-4,6-cyclohexanehexol]"
  molar heat capacity at constant pressure (J/K/mol): 245.47
- compound: "OC[C@H](O)C(O)[C@@H](O)CO [L-(-)-arabitol]"
  molar heat capacity at constant pressure (J/K/mol): 236.61
- compound: "OC[C@@H](O)C(O)[C@H](O)CO"
  molar heat capacity at constant pressure (J/K/mol): 228.54
